Experiment summary: In vitro enzyme assay to detect hydrolysis of chlorophenol red-beta-D-[…] directly proportional to the number of Toxoplasma stably expressing beta-galactosidase
Type: functional, organism-based, Toxoplasma gondii
Parameters: scale not given: in the data most compounds retested in dose-response had high values
Condition context: 50 µM
Hit rate of the full screen: of about 85,000 compounds, about 440 (0.52%) showed an effect of 50% or more. What follows is part of a selection rich in strong results, with near analogues and random picks from the rest.
Measured attribute: Percent Effect (%)
// units = %; emit number, no label

Reference set (6 entries):
CC1COCCN1CCNS(C)(=O)=O (stereo unspecified) = -4.94
CN(Cc1ccc(F)c(F)c1)C(=O)C1CCOCC1 = 0.4539
CCSCCC(C)N(C)C(=O)c1ccn(C)c(=O)c1 (stereo unspecified) = -4.294
COC(=O)C1CCN(C(=O)C2CCCO2)CC1 (stereo unspecified) = -8.272
COCc1nc(C2CCN(S(C)(=O)=O)C2)no1 (stereo unspecified) = -61
O=C(OCCOc1cccnc1)C1CC1 = 43.8

Return Percent Effect for the following compound: `CCOC(=O)CNC(=O)NCCc1ccc(OC)cc1`
-17.09

Give Percent Effect for the following compound: NCC(CO)Cc1ccsc1 (stereo unspecified)
-1.079

Identify measured Percent Effect corresponding to O=C(NCCc1nnc[nH]1)C1SCCc2ccccc21 (stereo unspecified)
-20.61

For the compound `COc1ccc(CN)nc1` , report Percent Effect.
5.444

Supply Percent Effect value. Item: `CSc1ccccc1C(=O)NCCSc1nnnn1C`
-10.69

Please give measured Percent Effect of the following entry: `COc1ccccc1C(=O)N1CCN(C2CC2)C(=O)C1`
-3.275

Query Percent Effect for `COCCN1CCC(c2ccn[nH]2)CC1`
-6.586

Report Percent Effect for `CCCOc1cccc(NCC(=O)N2CCNC2=O)c1`
1.752

* * *

Experiment summary: In vitro enzyme assay to detect hydrolysis of chlorophenol red-beta-D-[…] directly proportional to the number of Toxoplasma stably expressing beta-galactosidase
Type: functional, organism-based, Toxoplasma gondii
Design: scale not given: in the data most compounds retested in dose-response had high values
Condition context: 50 µM
Among all 85,000 compounds or so, about 440 (0.52%) showed an effect of 50% or more. What follows is part of a selection rich in strong results, with near analogues and random picks from the rest.
Measured attribute: Percent Effect (%)
Provide the reading as a plain figure in %.

Respond only with Percent Effect recorded for `NCCCNS(=O)(=O)c1ccc(Cl)cc1`
-0.1272

For `Nc1cc(-c2cccnc2)on1` , write its Percent Effect.
-0.8399

Return Percent Effect (reported value) for this compound: `CNCC(=O)Nc1ccc(C)cc1C(=O)N(C)C`
-7.454

For the compound `CC(C)(CNC(=O)c1c[nH]nn1)c1cccc(F)c1` , give its reported Percent Effect.
-9.623

* * *

Each item that follows carries a reported Percent Effect.
Experiment summary: In vitro enzyme assay to detect hydrolysis of chlorophenol red-beta-D-[…] directly proportional to the number of Toxoplasma stably expressing beta-galactosidase
Format: functional, organism-based, Toxoplasma gondii
Set-up: scale not given: in the data most compounds retested in dose-response had high values
Condition context: 50 µM
The campaign covered roughly 85,000 compounds. About 440 (0.52%) showed an effect of 50% or more. What follows is part of a selection rich in strong results, with near analogues and random picks from the rest.
I only need the number, in %, no unit after it.

Solved cases (8 shown):
CC1(CCNC(=O)c2ccon2)OCCO1 = 9.96
COC(C(=O)NC1(C)CCOCC1)c1ccccc1 (centres undefined) = -2.025
Cc1n[nH]cc1CNCCNc1ncc(Cl)cc1Cl = 5.335
CSc1ccccc1NCC(=O)NC1CC1 = 51.75
NCc1ccccc1OC(F)(F)F = 14.39
Cc1nccn1CCNc1cc(C2CC(O)C2)ncn1 (centres undefined) = 47.03
COc1c(C)cnc(CN(C)C)c1C = 0.7571
CNCCCNS(=O)(=O)c1ccc(Br)c(C(C)=O)c1 = 7.594

Return reported Percent Effect. Input compound: `Cc1nc(CNC(=O)N(C)Cc2ccncc2)cs1`
-10.17

Determine its reported Percent Effect: `Cc1nc(C)c(C(=O)NCc2ncoc2C)s1`
-1.836

Indicate the recorded Percent Effect value for this compound: `CC(=O)c1ccc(F)cc1NCC(=O)NC1CC1`
5.192

Note down Percent Effect recorded for `Cc1nccc(C(=O)NCC(C)(C)CN(C)C)n1`
2.804

Look up and state reported Percent Effect for `Cn1cc(CC(=O)Nc2ccc(I)cn2)cn1`
-1.266

* * *

Readings of Percent Effect for the listed compounds
Experiment summary: In vitro enzyme assay to detect hydrolysis of chlorophenol red-beta-D-[…] directly proportional to the number of Toxoplasma stably expressing beta-galactosidase
Type: functional, organism-based, Toxoplasma gondii
Parameters: scale not given: in the data most compounds retested in dose-response had high values
Condition context: 10 µM
In all, about 85,000 compounds went through this assay and about 440 (0.52%) showed an effect of 50% or more. The entries come from a sample that favours strong results as a whole.
Numeric answer only, unit % assumed.

Here is how some compounds turned out for Percent Effect.
Cn1ccnc1CN1CCC(c2ccnc(-c3cccc(O)c3)c2)C1 (stereo unspecified) = 55.29
CC(C)(C)Nc1nc(-c2cccnc2)c(-c2ccnc(NCCO)n2)s1 = 85.15
Oc1cccc(-c2cc(C3CCN(Cc4cncnc4)C3)ccn2)c1 (stereo unspecified) = 0.5564
CC(=O)NCCCNCc1ccc(Cl)c2cccnc12 = -6.901
OC1CCN(c2ccnc(NCCc3ccccc3Cl)n2)C1 (stereo unspecified) = 73.82
COc1cccc(-c2cccc(N3CCC(N[C@@H]4CCOC4)CC3)c2)c1 = 25.91

Given O=C(c1ccc(COc2ccc(Cl)cc2)o1)N1N=CCC1(O)C(F)(F)F (stereo unspecified) , respond with its Percent Effect.
95.68

Dear colleague, please send me the reported Percent Effect for `COc1ccc(C(=O)N2CCC(Oc3cccc(C)c3)(C(=O)O)CC2)o1` when you can.
-1.229

Output Percent Effect of OC1CCN(c2ccnc(NCCN3CCc4ccccc4C3)n2)C1 (stereo unspecified)
-7.659

Return reported Percent Effect. Input compound: `COCc1ccc(C(=O)N2CCC(Oc3ccccc3)(C(=O)O)CC2)o1`
0.5821

Retrieve Percent Effect measured for CN(C)CC(C)(C)CN1CCC(c2ccnc(-c3cccc(O)c3)c2)C1 (stereo unspecified) and print it.
7.739

* * *

Items are presented alongside their recorded Percent Effect.
Experiment summary: In vitro enzyme assay to detect hydrolysis of chlorophenol red-beta-D-[…] directly proportional to the number of Toxoplasma stably expressing beta-galactosidase
Type: functional, organism-based, Toxoplasma gondii
Set-up: scale not given: in the data most compounds retested in dose-response had high values
Condition context: 50 µM
Screen size: about 85,000 compounds; about 440 (0.52%) showed an effect of 50% or more. What follows is part of a selection rich in strong results, with near analogues and random picks from the rest.
Report the figure in % without appending any unit label.

Look up and state reported Percent Effect for `O=C(NCCCNCc1ccccc1)c1ccco1`
-4.419

Fill in reported Percent Effect for this entry: `NCC(=O)Nc1ccccc1`
0.1294

* * *

Measured Percent Effect values are reported for all entries that follow.
Experiment summary: In vitro enzyme assay to detect hydrolysis of chlorophenol red-beta-D-[…] directly proportional to the number of Toxoplasma stably expressing beta-galactosidase
Assay type: functional, organism-based, Toxoplasma gondii
Design: scale not given: in the data most compounds retested in dose-response had high values
Condition context: 10 µM
The whole screen tested about 85,000 compounds, of which about 440 (0.52%) showed an effect of 50% or more. The full list was thinned out, with strong results kept by preference.
Please give a number only; it is taken to be in %.

Examples from the recorded data:
Cc1cc(NCCO)nc(N2CCCC2)c1C#N = 1.046
Cc1nn(C)c2c(=O)n(Cc3ccc(C#N)cc3)nnc12 = 39.12
CCn1c(NCC2CCCO2)nc2c(C)nn(C)c2c1=O (stereo not drawn) = 22.67
Cc1cc(C(=O)NCC(C)C)nn1C = 9.135
Cc1ncc(CN(C)CCO)c2cc(C(=O)c3ccc(Br)cc3)oc12.Cl = 15.47

Supply recorded Percent Effect for `CC(C)c1cc(NC(=O)c2cccnc2)[nH]n1` here.
41.77

Given `CCn1nc(C)c2nc(C(C)C)nc(NCc3ccccn3)c21` , respond with its Percent Effect.
23.92

Dear colleague, please send me the reported Percent Effect for CCn1nc(C)c2ncnc(N3CCCC(C)C3)c21 (stereo not drawn) when you can.
16.85

Specify measured Percent Effect for `Cc1cc(C(=O)N(C)Cc2cccs2)nc(N2CCOCC2)n1` .
-10.44

Indicate its recorded Percent Effect; the compound in question is `CC(C)c1cc(=O)[nH]c(-n2nc(C3CC3)cc2N)n1`
94.68

Report Percent Effect for `Cc1ccc(C(=O)Nc2cc(C(C)C)n[nH]2)cn1`
-1.588

Return value of Percent Effect for input `CCn1nc(C)c2nc(C(C)C)nc(NCCCn3cccn3)c21` , no commentary.
57.58

Specify reported Percent Effect for the compound shown: `CCCc1nc(NCCCn2cccn2)c2c(n1)c(C)nn2CC`
20.81

Answer with the recorded Percent Effect for the compound listed here: `COc1ccccc1C1(CNc2snc(Cl)c2C#N)CCOCC1`
-0.2674
